So I've got a bunch of binders here, and I need their pKd values.
biological target: T1, RSV postfusion F (postF), subtype B (respiratory syncytial virus subtype B); test: BLI, IgG
T1 construct: also called Postfusion subtype B
T1 sequence (P13843 26-109, chain 1 of 2): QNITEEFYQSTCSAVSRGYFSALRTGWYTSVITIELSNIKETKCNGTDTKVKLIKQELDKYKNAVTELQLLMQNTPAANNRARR
T1 sequence (P13843 147-513, chain 2 of 2): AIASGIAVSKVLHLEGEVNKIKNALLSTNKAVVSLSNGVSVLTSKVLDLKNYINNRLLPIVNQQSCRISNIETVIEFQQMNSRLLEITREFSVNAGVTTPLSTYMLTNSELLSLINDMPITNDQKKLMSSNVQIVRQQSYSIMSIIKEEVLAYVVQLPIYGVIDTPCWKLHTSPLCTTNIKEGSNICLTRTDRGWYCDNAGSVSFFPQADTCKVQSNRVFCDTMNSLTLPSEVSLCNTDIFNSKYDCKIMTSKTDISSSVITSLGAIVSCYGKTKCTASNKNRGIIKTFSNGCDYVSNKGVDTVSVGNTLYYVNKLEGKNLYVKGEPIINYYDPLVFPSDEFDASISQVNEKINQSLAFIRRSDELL
Keep in mind that pKd stands for -log10 of concentration in molar terms.

Asked: Identify measured pKd corresponding to ADI-22778 (antibody, V domains shown, full-length IgG) VH: EVQLVESGPGLVKPSETLSLTCTVSGGSINSYSWTWIRQPPGKGLEWLGSFDYSGSNTYNPSLKSRVTIAVDTSKNQFSLKLTSATAADTAVYYCARAPVYDSSGYYLYYFDNWGQGTLVTVSS VL: DIQMTQSPSSLSASVGDRVTITCRASQSIASYLNWYQQKPGKAPKLLIFAASNLHSGVPSRFSGSGSGTTFTLTISSLQPEDFATYYCQQSYSIRFFTFGPGTKLEIK
Given back: 8.56

Asked: Identify measured pKd corresponding to ADI-19478 (antibody, V domains shown, full-length IgG; also called Ab 180) VH: QVQLVESGPGVVKPSETLSLTCTVSGGPVSSRSYYWGWIRQPPGKGLEWIGSIYYSGSTYYNTSLKSRVTISVDTSKNQFSLKLSSVTAADTAVYYCAKLQYSTSGFDYWGQGTLVTVSS VL: QPVLTQPPSVSEAPRQRVTISCSGSSSNIGNNAVSWYQQLPGKAPKLLIYYDDLVPSGVSDRFSGSKSGTSASLAISGLQSEDEADYYCAAWDDSLNGVVFGGGTKLTVL
Given back: 9.15

Asked: Identify measured pKd corresponding to ADI-14350 (antibody, V domains shown, full-length IgG; also called Ab 18) VH: EVQLVESGPGLVKPSETLSLTCTVSGDSVSNNNYYWNWIRQSPGKGLEWIGYIYYSGSTDYNPSLKSRVTISVDTSKNQFSLNLRSVTAADTAIYFCASAPWGMFTILGVVP VL: QSVLTQPPSVSGAPGQRVTISCTGSSSNIGAGYDVHWYQQLPGTAPKLLIYGSSNRPSGVPDRFSGSRSGTSASLAITGLQAEDEADYYCQSYDGSLGVYVFATGTKVTVL
Given back: 9.83

Data credit: patent US20260258115A1
